PROTOCOL_DESCRIPTION: Apparent elimination half life in rat at 2 mg/kg, iv
Assay type: ADME, organism-based
Design: dose 2 mg/kg, route intravenous
RECORDED_CONDITIONS: in vivo
REPORTED_METRIC: half-life (min)
Give the value in min but do not write min after it.

Looking up CN(c1cccn(O)c1=O)S(=O)(=O)c1ccc(Oc2ccc(Cl)cc2)cc1 , I see its half-life listed as 2820

* * *

PROTOCOL_DESCRIPTION: Volume of distribution at steady state in rat at 2 mg/kg, iv
Format: ADME, organism-based
Parameters: dose 2 mg/kg, route intravenous
RECORDED_CONDITIONS: in vivo, read-out: Vdss
REPORTED_METRIC: Vd (L/kg)
Give the value in L/kg but do not write L/kg after it.

Looking up CN(c1cccn(O)c1=O)S(=O)(=O)c1ccc(Oc2ccc(Cl)cc2)cc1 , I see its Vd listed as 1.75
